Provenance of the data: PubChem BioAssay (NCATS)

System: MKL-1
Test: qHTS assay to identify novel small-molecules to repurpose for Merkel cell carcinoma treatment (AID 1296009); also: nearly all actives have a fitted effect of over 60% in size
Conditions: MCC and control cell lines, CellTiter-Glo viability, 72 h; series mostly up to 46 µM
Text: MCC is a rare and aggressive neuroendocrine skin cancer with limited treatment options. Approximately 80% of MCCs have the Merkel cell polyomavirus (MCPyV) DNA integrated into the host genome (virus-positive: VP-MCC) and viral oncogenes drive oncogenesis. The remaining MCCs are virus-negative (VN-MCC) and are caused by UV mutagenesis. […] Using cell viability as a readout (CellTiter-Glo assay) we found both overlapping and distinct drugs that can be repurposed for the treatment of VP-MCC and VN-MCC. […]
Results filed as inconclusive are left out. Calls of active or inactive are those of the source. Calls follow the shape of the dose curve; as a rule, active = well fitted inhibition curve with a large enough effect; inconclusive = small, poorly fitted or top-dose-only effect; inactive = flat fitted curve, though single readings scatter. Non-standard residues stand in square brackets, D forms with d. Residues, ends and D or L forms follow the SMILES beside them. *: point of attachment. Nva = CCC[C@H](N)C(=O)O; Cbz = O=C(OCc1ccccc1)*
Select the matching outcome among yes (1) for active, no (0) for inactive

>  <COMPOUND>
CCN(C(=O)c1c(O)c2c(Cl)cccc2n(C)c1=O)c1ccccc1

>  <GROUP LABEL>
no (0)

$$$$

Attention now shifts to the item below.
Could you please tell me the result logged for CCC[C@@H](C=O)NC(=O)[C@H](CC(C)C)NC(=O)[C@H](CC(C)C)NC(=O)OCc1ccccc1 (Cbz-Leu-Leu-[Nva]-aldehyde) in this assay?
yes (1)
